- assay-explanation: Chemical analysis (LC-MSMS) and degradation of thiamethoxam in LUFA 2.2 soil
- Assay type: physicochemical
- condition-parameters: nominal 1.1 mg/kg dry soil; LUFA 2.2 soil; first order degradation kinetics; read-out: DT50 (half-life in soil) (converted)
measure-name: half-life at 1.1 mg/kg dry soil (days)
Output spec: scalar in days, unitless text.

Lookup: Requested field: half-life at 1.1 mg/kg dry soil. Item: "CN1COCN(Cc2cnc(Cl)s2)/C1=N\[N+](=O)[O-]"
Found: 112

---

- assay-explanation: Chemical analysis (LC-MSMS) and degradation of thiamethoxam in LUFA 2.2 soil
- Format: physicochemical
- condition-parameters: nominal 0.37 mg/kg dry soil; LUFA 2.2 soil; first order degradation kinetics; read-out: DT50 (half-life in soil) (converted)
measure-name: half-life at 0.37 mg/kg dry soil (days)
A number alone suffices; assume days.

Lookup: Give the measured half-life at 0.37 mg/kg dry soil of CN1COCN(Cc2cnc(Cl)s2)/C1=N\[N+](=O)[O-] [Thiamethoxam Pure, thiamethoxam] .
Found: 140

---

- assay-explanation: Chemical analysis (LC-MSMS) and degradation of thiamethoxam in LUFA 2.2 soil
- Type: physicochemical
- condition-parameters: LUFA 2.2 soil; nominal 0.12-1.1 mg/kg dry soil; read-out: DT50 (half-life in soil), range over the concentrations
measure-name: half-life

Lookup: Could you share which half-life value was measured for "CN1COCN(Cc2cnc(Cl)s2)/C1=N\[N+](=O)[O-]" ?
Found: 112 to 156 days

---

- assay-explanation: Chemical analysis (LC-MSMS) and degradation of thiamethoxam in LUFA 2.2 soil
- Assay type: physicochemical
- condition-parameters: LUFA 2.2 soil; average over nominal 0.12-1.1 mg/kg dry soil; read-out: DT50 (half-life in soil), average (converted)
measure-name: half-life (days)
Kindly answer with a numeric value in days, unit omitted.

Lookup: Could you share which half-life value was measured for CN1COCN(Cc2cnc(Cl)s2)/C1=N\[N+](=O)[O-] [Thiamethoxam Pure, thiamethoxam] ?
Found: 139
